Tested on: RXF 393
Test: NCI tumour cell line growth inhibition, 48 h
Activity calls are given as the source filed them. Cut-off read from the data, not from the text of the source: active = GI50 up to about 1.1 µM and inactive = higher.
Use one of these outcomes when replying: active, inactive

Test call, this molecule: O=C(O)CCC(N/N=N/c1ccc(-c2nc3ccccc3[nH]2)cc1)C(=O)O (stereo not given)
inactive

# repeat for COc1ccc(/C=C2\CC3C4CC=C5C[C@@H](N6CCCC6)CC[C@]5(C)C4CC[C@]3(C)[C@H]2O)cc1OC (stereo not given in full)
inactive

# repeat for `COc1cc2c(cc1C)NC(=O)/C2=C/c1c(Cl)n(C)c2ccccc12`
inactive

----------
System: MDA-N
Assay: NCI tumour cell line growth inhibition, 48 h
The source made the active and inactive calls. Cut-off read from the data, not from the text of the source: active = GI50 up to about 1.1 µM and inactive = higher.
QUANTITY MEASURED: GI50

Here are 3 molecules together with their reported answers.
CC(C)C1=CC(=O)C(C)(C2C(O)CC3(C)C4CC=C5C(CCC(OC6OC(CO)C(O)C(O)C6OC6OC(C)C(O)C(O)C6O)C5(C)C)C4(C)C(=O)CC23C)O1 (centres undefined): > 100 µM (inactive)
CC(C)=CCC[C@@H](C)C1=C(O)C(=O)C(C)=C(c2c(I)c(=O)n(C)c(=O)n2C)C1=O: > 100 µM (inactive)
CCN1C=C/C(=C\C=C\c2cc[n+](CC)c3ccccc23)c2ccccc21: 7.01 µM (inactive)

Param item = `O=C(O)CSc1cc(-c2ccccc2)nc2ccccc12` ; retrieve measured GI50.
35.6 µM (inactive)

# repeat for `O=S1(=O)OCc2ccccc21`
> 100 µM (inactive)

# repeat for Cc1ccccc1C(=O)C#Cc1cn(C2CC(O)C(CO)O2)c(=O)[nH]c1=O (centres undefined)
> 100 µM (inactive)

# repeat for `N#CCCN(CCC#N)c1ccc(/C=C2\N=C(c3ccccc3)N(c3ccccc3)C2=O)cc1`
> 100 µM (inactive)

# repeat for `COc1cc2c(cc1C)NC(=O)/C2=C/c1c(Cl)n(C)c2ccccc12`
2.15 µM (inactive)

# repeat for CC(=O)O[C@H]1C(=O)[C@@]2(C)C(C(OC(=O)c3ccccc3)[C@]3(O)CC(OC(=O)C(O)C(NC(=O)c4cccc(Cl)c4)c4ccccc4)C(C)=C1C3(C)C)[C@]1(OC(C)=O)CO[C@@H]1C[C@@H]2O (some centres undefined)
0.0914 µM (active)

# repeat for `Cc1coc2c1[C@@H](O)[C@@]1(C)[C@H](CCC[C@@H]1C)C2`
20.7 µM (inactive)

# repeat for `CCN1C(=O)/C(=C\Nc2ccccc2)S/C1=N/Nc1ncc(CC(=O)Nc2ccccc2C)s1`
> 100 µM (inactive)

# repeat for COc1cc2oc(=O)ccc2cc1CC=C(C)C [SUBEROSIN]
52.5 µM (inactive)

----------
Test system: A498
Test: NCI tumour cell line growth inhibition, 48 h
Active and inactive are the calls of the source. Cut-off read from the data, not from the text of the source: active = GI50 up to about 1.1 µM and inactive = higher.
GI50 values for the molecules below.

Here are 3 molecules together with their reported answers.
COc1cccc(NC(=O)CC(=O)Nc2cccc(OC)c2)c1: > 100 µM (inactive)
CCOC(=O)CCC(NC(=O)c1ccc(NCc2ccc3nc(OC)c(OC)nc3c2)c2ccccc12)C(=O)OCC (stereo unspecified): 61.8 µM (inactive)
COCOC1/C=C/CCCCC2=C(C)C=C(C1)O2 (stereo unspecified): > 100 µM (inactive)

Param item = CCC1(O)CC(c2ccccc2)N(C)C(c2ccccc2)C1 (stereo unspecified) ; retrieve measured GI50.
> 100 µM (inactive)

# repeat for `CCN(CCCl)CCNc1c2ccccc2nc2ccc(OC)cc12`
1.78 µM (inactive)

# repeat for `COC(=O)Nc1nc2cc(NC(=O)c3cccs3)ccc2[nH]1`
11.2 µM (inactive)
